Hi there, I'd appreciate the recorded Remaining Percentage for every entry that follows.
test: Stability in SGF without pepsin; assay type: physicochemical; details: Table 8, 240 min
Hi! Could you send only the number? It should be in %, unit omitted.

Would you mind telling me what Remaining Percentage value was observed for CCCCC(=O)Oc1cccc2ccn(CCN(C)C)c12 ? 103.22

Would you mind telling me what Remaining Percentage value was observed for CC(OC(=O)C(C)C)OC(=O)n1cc(CCN(C)C)c2ccccc21 (stereo not shown) ? 98.86

Would you mind telling me what Remaining Percentage value was observed for CC[C@H]1OC(=O)[C@H](C)[C@@H](O[C@H]2C[C@@](C)(OC)[C@@H](O)[C@H](C)O2)[C@H](C)[C@@H](O[C@@H]2O[C@H](C)C[C@H](N(C)C)[C@H]2O)[C@](C)(O)C[C@@H](C)C(=O)[C@H](C)[C@@H](O)[C@]1(C)O [Erythromycin, reference compound] ? 1.47

Would you mind telling me what Remaining Percentage value was observed for CC(OC(=O)n1cc(CCN(C)C)c2ccccc21)OC(=O)C(C)(C)C (racemic) ? 97.98

Where these numbers come from: patent US11643391B2
